Target: UniProt:Q64654
Sequence (Q64654 1-503): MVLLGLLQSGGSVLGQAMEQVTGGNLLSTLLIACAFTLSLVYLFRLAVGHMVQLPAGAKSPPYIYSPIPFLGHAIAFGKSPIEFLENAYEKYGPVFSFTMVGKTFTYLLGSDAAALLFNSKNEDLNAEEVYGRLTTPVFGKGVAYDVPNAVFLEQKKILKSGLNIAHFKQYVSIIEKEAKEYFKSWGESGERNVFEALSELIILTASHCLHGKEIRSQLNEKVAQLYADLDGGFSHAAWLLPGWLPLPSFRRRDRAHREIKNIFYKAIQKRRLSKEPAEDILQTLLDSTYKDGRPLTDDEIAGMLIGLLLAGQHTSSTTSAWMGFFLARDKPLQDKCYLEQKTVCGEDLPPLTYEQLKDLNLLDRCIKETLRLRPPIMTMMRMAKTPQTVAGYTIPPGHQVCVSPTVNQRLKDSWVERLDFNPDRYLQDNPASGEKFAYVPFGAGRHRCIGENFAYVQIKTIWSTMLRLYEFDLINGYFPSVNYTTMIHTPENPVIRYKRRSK
Quantity measured: IC50

The molecule listed as CC(C)CCC[C@@H](C)[C@H]1C[C@H](O)[C@@]2(O)C3=C(CC[C@]12C)[C@@]1(C)CC[C@H](O)C[C@@H]1CC3 [Compound 35a, 5α-cholest-8-en-3β,14α,15α-triol] has a reported IC50 of > 100 µM

The molecule listed as CC(C)CCC[C@@H](C)[C@H]1C[C@H](F)[C@@]2(C)C3=CC[C@H]4C[C@@H](O)CC[C@]4(C)[C@H]3CC[C@]12C [Compound 27b] has a reported IC50 of > 100 µM

The molecule listed as CC(C)CCC[C@@H](C)[C@H]1C[C@H](F)[C@@]2(C)C3=CC[C@H]4C(C)(C)[C@@H](O)CC[C@]4(C)[C@H]3CC[C@]12C [Compound 26b, 15α-fluoro-lanost-7-en-3β-ol] has a reported IC50 of > 100 µM

Data provenance: patent US5034548A
